// data source = the supplement of paper PMC9112550

Tested on: Escherichia coli TOP10
Assay: shrunken log2 fold change of peptide-encoding DNA abundance (4.5 h post-induction vs induction); higher = less antimicrobial activity (less host growth inhibition)
Conditions: time post-induction: 4.5 h; library: site-saturation at positions 5, 18, 19, 20
Recorded shrunken log2 fold change, one value per entry.
experimental readout: shrunken log2 fold change

>  <biopolymer sequence>
RRIRVRPPRLPRPRPRPCQFPRP

>  <experimental readout>
shrunken log2 fold change

>  <observed measurement>
0.143

$$$$
>  <biopolymer sequence>
RRIRWRPPRLPRPRPRPMPRPRP

>  <experimental readout>
shrunken log2 fold change

>  <observed measurement>
0.623

$$$$
>  <biopolymer sequence>
RRIRSRPPRLPRPRPRPSEDPRP

>  <experimental readout>
shrunken log2 fold change

>  <observed measurement>
-0.325

$$$$
>  <biopolymer sequence>
RRIRTRPPRLPRPRPRPHHYPRP

>  <experimental readout>
shrunken log2 fold change

>  <observed measurement>
-0.46

$$$$
>  <biopolymer sequence>
RRIRMRPPRLPRPRPRPYNKPRP

>  <experimental readout>
shrunken log2 fold change

>  <observed measurement>
-0.561

$$$$
>  <biopolymer sequence>
RRIRYRPPRLPRPRPRPDQWPRP

>  <experimental readout>
shrunken log2 fold change

>  <observed measurement>
-0.103

$$$$
>  <biopolymer sequence>
RRIRNRPPRLPRPRPRPKKRPRP

>  <experimental readout>
shrunken log2 fold change

>  <observed measurement>
0.201

$$$$
>  <biopolymer sequence>
RRIRERPPRLPRPRPRPHVNPRP

>  <experimental readout>
shrunken log2 fold change

>  <observed measurement>
-1.04

$$$$
>  <biopolymer sequence>
RRIRARPPRLPRPRPRPQSYPRP

>  <experimental readout>
shrunken log2 fold change

>  <observed measurement>
-0.118

$$$$
>  <biopolymer sequence>
RRIRGRPPRLPRPRPRPMCLPRP

>  <experimental readout>
shrunken log2 fold change

>  <observed measurement>
0.0563

$$$$
>  <biopolymer sequence>
RRIRVRPPRLPRPRPRPTIMPRP

>  <experimental readout>
shrunken log2 fold change

>  <observed measurement>
-0.411

$$$$
>  <biopolymer sequence>
RRIRQRPPRLPRPRPRPTLWPRP

>  <experimental readout>
shrunken log2 fold change

>  <observed measurement>
0.0794

$$$$
>  <biopolymer sequence>
RRIRNRPPRLPRPRPRPLHRPRP

>  <experimental readout>
shrunken log2 fold change

>  <observed measurement>
-0.249

$$$$
>  <biopolymer sequence>
RRIRTRPPRLPRPRPRPADWPRP

>  <experimental readout>
shrunken log2 fold change

>  <observed measurement>
0.446

$$$$
>  <biopolymer sequence>
RRIRFRPPRLPRPRPRPQWMPRP

>  <experimental readout>
shrunken log2 fold change

>  <observed measurement>
-0.414

$$$$

---

Parameter: shrunken log2 fold change. Scope: all listed entries.
Tested on: Escherichia coli TOP10;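 note: peptides expressed intracellularly from a pBAD plasmid library in pooled LB shake-flask culture, induced with 0.3% L-arabinose, DNA abundance read by NGS, three biological replicates, DESeq2 with apeglm shrinkage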
Assay: shrunken log2 fold change of peptide-encoding DNA abundance (4.5 h post-induction vs induction); higher = less antimicrobial activity (less host growth inhibition)
Conditions: time post-induction: 4.5 h; library: site-saturation at positions 5, 18, 19, 20
experimental readout: shrunken log2 fold change

>  <biopolymer sequence>
RRIRARPPRLPRPRPRPVIPPRP

>  <experimental readout>
shrunken log2 fold change

>  <observed measurement>
-0.296

$$$$
>  <biopolymer sequence>
RRIRDRPPRLPRPRPRPPMQPRP

>  <experimental readout>
shrunken log2 fold change

>  <observed measurement>
0.172

$$$$
>  <biopolymer sequence>
RRIRSRPPRLPRPRPRPMNAPRP

>  <experimental readout>
shrunken log2 fold change

>  <observed measurement>
0.0215

$$$$
>  <biopolymer sequence>
RRIRHRPPRLPRPRPRPFKSPRP

>  <experimental readout>
shrunken log2 fold change

>  <observed measurement>
0.00748

$$$$
>  <biopolymer sequence>
RRIRKRPPRLPRPRPRPGCCPRP

>  <experimental readout>
shrunken log2 fold change

>  <observed measurement>
0.722

$$$$
>  <biopolymer sequence>
RRIRDRPPRLPRPRPRPENSPRP

>  <experimental readout>
shrunken log2 fold change

>  <observed measurement>
0.0647

$$$$
>  <biopolymer sequence>
RRIRHRPPRLPRPRPRPKPCPRP

>  <experimental readout>
shrunken log2 fold change

>  <observed measurement>
-0.139

$$$$
>  <biopolymer sequence>
RRIRFRPPRLPRPRPRPINAPRP

>  <experimental readout>
shrunken log2 fold change

>  <observed measurement>
0.00976

$$$$
